B1: STX11 (parent)
chain: FQRAMHDYNQAEMKQRDNCKIRIQ

# Variants of: B1
# EXPERIMENT NOTES: protein stability index of a GFP-peptide fusion (GPS, HEK-293T) (PSI 1-6); higher = more stable;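 further: lentivirally expressed fusions sorted by FACS into six bins by GFP to DsRed ratio, PSI derived from sequencing read proportions per bin multiplied by bin number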
# CONDITION DESCRIPTION: c terminus: a fixed tail appended
Measured protein stability index values are reported for all entries that follow.
Answer as a number with no unit attached.

Use the examples below as a reference point.
1) D17K | 1.98
2) D17H | 2.15
3) K14D | 3.08
4) C19M | 2.85
5) Q15N | 2.86
6) D7Y | 1.67

# input I have this variant here, "Q15I" , and I need its recorded protein stability index.
# output 2.17
